- EXPERIMENTAL SYSTEM: PAR4 (Homo sapiens, UniProt Q96RI0)
- Construct: 60 μL of washed platelets (Tyrodes buffer containing 0.1% BSA); endogenous in cells
- Sequence (Q96RI0 18-385): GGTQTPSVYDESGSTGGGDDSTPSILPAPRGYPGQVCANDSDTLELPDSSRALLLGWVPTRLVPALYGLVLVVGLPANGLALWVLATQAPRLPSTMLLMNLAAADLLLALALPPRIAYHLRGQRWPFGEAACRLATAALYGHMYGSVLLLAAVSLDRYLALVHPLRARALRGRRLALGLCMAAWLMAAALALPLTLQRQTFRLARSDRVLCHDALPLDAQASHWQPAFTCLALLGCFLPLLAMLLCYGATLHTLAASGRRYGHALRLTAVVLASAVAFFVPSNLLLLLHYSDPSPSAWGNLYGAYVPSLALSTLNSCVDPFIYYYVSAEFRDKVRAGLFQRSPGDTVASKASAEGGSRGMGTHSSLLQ
- TEST: PAC-1 Binding assay (antagonism of PAR4 mediated αIIBβ3 activation, flow cytometry)
- Assay type: cell-based
- ASSAY CONDITIONS: washed platelets; 100% response = DMSO treated control stimulated with 200 μM PAR4-AP; mean values
MEASUREMENT LABEL: % Max PAC-1
Show the value, then the unit it is measured in.

Known % Max PAC-1 results, listed for orientation:
# MOLECULE, EXPERIMENTAL SYSTEM, % Max PAC-1
data = [
    ("COc1ccc(-c2c(CO)n(CC3CSC(c4ccccc4)=N3)c3ccc(OC(F)(F)F)cc23)cn1 (stereo not shown)", "PAR4 (Homo sapiens, UniProt Q96RI0)", "89.19%"),
    ("COc1ccc(-c2c(CO)n(Cc3cccc(Cl)c3)c3ccc(OC(F)(F)F)cc23)cn1", "PAR4 (Homo sapiens, UniProt Q96RI0)", "27.8%"),
    ("COc1ccc(-c2c(CO)n(Cc3ccccc3)c3ccc(OC(F)(F)F)cc23)cn1", "PAR4 (Homo sapiens, UniProt Q96RI0)", "53.4%"),
]

Kindly note the recorded % Max PAC-1 for `CCOc1ccc2c(-c3ccc(OC)nc3)c(CO)n(Cc3ccccc3Cl)c2c1` , which is 19.78%
